Molecular target: Topoisomerase IV (Staphylococcus aureus, UniProt P0C1S7+P0C1U9)
Sequence (P0C1U9 whole entry): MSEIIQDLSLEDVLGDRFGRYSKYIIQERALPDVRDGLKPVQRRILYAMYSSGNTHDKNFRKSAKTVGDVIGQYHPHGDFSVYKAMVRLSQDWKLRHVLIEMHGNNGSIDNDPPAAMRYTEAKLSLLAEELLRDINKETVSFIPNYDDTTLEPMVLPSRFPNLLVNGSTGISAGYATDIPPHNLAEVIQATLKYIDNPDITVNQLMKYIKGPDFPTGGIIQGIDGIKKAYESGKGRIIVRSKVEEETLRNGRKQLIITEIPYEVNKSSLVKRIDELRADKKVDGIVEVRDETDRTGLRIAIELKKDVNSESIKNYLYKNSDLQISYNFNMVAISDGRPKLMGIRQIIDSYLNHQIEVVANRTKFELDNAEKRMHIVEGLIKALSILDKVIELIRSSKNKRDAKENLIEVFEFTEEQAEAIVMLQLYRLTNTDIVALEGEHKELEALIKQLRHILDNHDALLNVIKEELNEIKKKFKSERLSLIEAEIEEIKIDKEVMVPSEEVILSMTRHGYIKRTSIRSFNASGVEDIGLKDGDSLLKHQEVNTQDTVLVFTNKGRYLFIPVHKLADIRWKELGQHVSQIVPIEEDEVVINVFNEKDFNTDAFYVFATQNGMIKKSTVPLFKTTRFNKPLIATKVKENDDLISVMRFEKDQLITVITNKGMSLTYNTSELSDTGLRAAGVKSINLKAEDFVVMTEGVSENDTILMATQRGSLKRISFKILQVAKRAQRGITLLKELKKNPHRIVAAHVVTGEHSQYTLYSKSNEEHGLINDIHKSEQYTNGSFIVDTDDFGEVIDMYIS
Sequence (P0C1S7 whole entry): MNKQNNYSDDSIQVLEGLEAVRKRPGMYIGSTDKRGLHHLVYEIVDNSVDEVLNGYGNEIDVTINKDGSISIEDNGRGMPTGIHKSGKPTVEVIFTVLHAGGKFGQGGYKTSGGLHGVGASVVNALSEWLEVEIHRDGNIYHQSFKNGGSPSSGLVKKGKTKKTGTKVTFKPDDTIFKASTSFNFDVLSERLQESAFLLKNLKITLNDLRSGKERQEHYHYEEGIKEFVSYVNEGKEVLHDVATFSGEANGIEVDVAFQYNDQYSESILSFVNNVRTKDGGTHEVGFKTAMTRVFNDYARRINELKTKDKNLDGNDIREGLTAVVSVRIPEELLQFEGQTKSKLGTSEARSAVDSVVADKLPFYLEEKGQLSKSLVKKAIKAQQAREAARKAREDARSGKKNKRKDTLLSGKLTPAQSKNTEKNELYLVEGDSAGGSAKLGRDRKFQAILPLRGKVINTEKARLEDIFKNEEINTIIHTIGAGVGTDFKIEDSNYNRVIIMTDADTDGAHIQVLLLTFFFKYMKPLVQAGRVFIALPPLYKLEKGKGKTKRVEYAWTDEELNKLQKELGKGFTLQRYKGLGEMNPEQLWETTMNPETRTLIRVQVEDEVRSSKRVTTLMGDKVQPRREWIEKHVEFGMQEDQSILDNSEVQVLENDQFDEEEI
Assay: Inhibition of Staphylococcus aureus topoisomerase-IV assessed as reduction in decatenation using kinetoplast DNA as substrate incubated for 20 mins by ethidium bromide staining based agarose gel electrophoresis method
PARAMETER_MEASURED: pIC50
# log scale: pIC50 equals minus log10 of the concentration in mol/L

In: pIC50 for `COc1ccc2ncc(F)c(CCN3CCC([C@H](O)[C@H](O)c4ccc(C)cc4)CC3)c2n1` ?
Out: 5.48

In: pIC50 for COc1ccc2ncc(F)c(CCN3CCC(C(O)Cc4ccc(C)cc4)CC3)c2n1 (centres undefined) ?
Out: 5.64

In: pIC50 for `COc1ccc2ncc(F)c(CCN3CCC(NCc4ccc(C)cc4)CC3)c2n1` ?
Out: 6.16

In: pIC50 for COc1ccc2ncc(F)c(CCN3CCC(C(N)Cc4ccc(C)cc4)CC3)c2n1 (centres undefined) ?
Out: 4.08

----------
Molecular target: DNA gyrase (Staphylococcus aureus, UniProt P0A0K8+P20831)
Test: Inhibition of Staphylococcus aureus DNA gyrase using relaxed pBR322 DNA as substrate incubated for 30 mins by ethidium bromide staining based agarose gel electrophoresis method
Consider the following compounds; for each one, report its IC50.
Number in nM, nothing else.

In: IC50 for `COc1ccc2ncc(F)c(CCN3CCC([C@H](O)[C@H](O)c4ccc(C)cc4)CC3)c2n1` ?
Out: 65

In: IC50 for COc1ccc2ncc(F)c(CCN3CCC(C(N)Cc4ccc(C)cc4)CC3)c2n1 (centres undefined) ?
Out: 5050

In: IC50 for `COc1ccc2ncc(F)c(CCN3CCC(NCc4ccc(C)cc4)CC3)c2n1` ?
Out: 4

In: IC50 for COc1ccc2ncc(F)c(CCN3CCC(C(O)Cc4ccc(C)cc4)CC3)c2n1 (centres undefined) ?
Out: 240

----------
Test system: Staphylococcus aureus
Assay: Antibacterial activity against Staphylococcus aureus D83N
Type: functional
PARAMETER_MEASURED: MIC (µg/mL)
Number in µg/mL, nothing else.

In: MIC for `COc1ccc2ncc(F)c(CCN3CCC(CCc4ccc(C)cc4)CC3)c2n1` ?
Out: 4

In: MIC for COc1ccc2ncc(F)c(CCN3CCC(C(O)Cc4ccc5c(c4)OCCO5)CC3)c2n1 (stereo unspecified) ?
Out: 4

In: MIC for `COc1ccc2ncc(F)c(CCN3CCC(C(=O)Cc4ccc5c(c4)OCCO5)CC3)c2n1` ?
Out: 32

In: MIC for `COc1ccc2ncc(F)c(CCN3CCC(CCc4ccc5c(c4)OCCO5)CC3)c2n1` ?
Out: 8

In: MIC for O=c1ccc2ncc(=O)n3c2n1C[C@H]3CN1CCC(NCc2cc3c(cn2)OCCC3)CC1 [GEPOTIDACIN] ?
Out: 8

In: MIC for `COc1ccc2ncc(F)c(CCN3CCC(NCc4ccc(C)cc4)CC3)c2n1` ?
Out: 16

In: MIC for `COc1ccc2ncc(F)c(CCN3CCC(/C=C\c4ccc(C)cc4)CC3)c2n1` ?
Out: 32

In: MIC for COc1ccc2ncc(F)c(CCN3CCC(C(N)Cc4ccc(C)cc4)CC3)c2n1 (stereo unspecified) ?
Out: 32

In: MIC for `COc1ccc2ncc(F)c(CCN3CCC(/C=C/c4ccc5c(c4)OCCO5)CC3)c2n1` ?
Out: 2

In: MIC for COc1ccc2ncc(F)c(CCN3CCC(C(O)Cc4ccc(C)cc4)CC3)c2n1 (stereo unspecified) ?
Out: 8

In: MIC for `COc1ccc2ncc(F)c(CCN3CCC(/C=C/c4ccc5c(c4)NC(=O)CO5)CC3)c2n1` ?
Out: 16
